test system: LOX IMVI melanoma; experiment: NCI tumour cell line growth inhibition, 48 h
Below, each entry is listed with its recorded TGI.

Answered cases to consult:
[
  {
    "COMPOUND": "C(=NCCN1CCOCC1)=NC1CCCCC1",
    "TGI": "> 100 µM"
  },
  {
    "COMPOUND": "O=CCC1CCCCC1",
    "TGI": "> 100 µM"
  },
  {
    "COMPOUND": "O=c1[nH]nnc2c1sc1ncccc12",
    "TGI": "> 100 µM"
  },
  {
    "COMPOUND": "N=C(N)C1CN(CCc2c[nH]c3ccccc23)C(=O)NC1=O (stereo unspecified)",
    "TGI": "> 100 µM"
  },
  {
    "COMPOUND": "COC(=O)/C=C(\\C(=O)OC)C1C(=O)Oc2c(C)c(=O)c3ccccc3n21 (stereo unspecified)",
    "TGI": "> 100 µM"
  }
]

Briefly, TGI measured for `CC(=O)c1ccccc1NP(=O)(c1ccccc1)c1ccccc1` : > 100 µM

Briefly, TGI measured for `O=C(N/N=C(\c1ccccc1)c1ccccn1)NC1CCCCC1` : 51.7 µM

Briefly, TGI measured for `CN(C)c1ccc(/C=c2/c3ccccc3n3c2c2c([n+]3C)CCCC2)cc1` : 1.39 µM

Briefly, TGI measured for CC(C)(C)OC(=O)NC1CCCCC1NC(=O)C(=O)NC1CCCCC1NC(=O)OC(C)(C)C (stereo unspecified) : > 100 µM

Briefly, TGI measured for CC(C)CCC1CC2C(=O)N(c3ccccc3)C(=O)C2c2[nH]c3ccccc3c21 (stereo unspecified) : 14.6 µM

Briefly, TGI measured for `COC[C@@H](N=CC(C)(C)C)C(C)C` : > 100 µM

----------
system: CAKI-1 renal; experiment: NCI tumour cell line growth inhibition, 48 h
ENDPOINT: TGI

Answered cases to consult:
[
  {
    "ENTRY SMILES": "CC(=O)CCn1c(=S)sc2ccccc21",
    "RESULT": "> 100 µM"
  },
  {
    "ENTRY SMILES": "O=C(Nc1ccn(CCO)c(=O)n1)c1ccccc1",
    "RESULT": "> 100 µM"
  }
]

Pending molecule:
Briefly, TGI measured for `CC1(C)S[C@@H]2[C@H](NC(=O)C3(N)CCCCC3)C(=O)N2[C@H]1C(=O)O` : > 100 µM

----------
Below, each entry is listed with its recorded TGI.
test system: NCI-H522 lung; assay: NCI tumour cell line growth inhibition, 48 h

[
  {
    "COMPOUND": "COc1cccc(CCNC(=O)Cc2ccccc2CCO)c1",
    "ENDPOINT": "TGI",
    "RESULT": "> 100 µM"
  },
  {
    "COMPOUND": "Nc1c(C(=O)O)nnc2ccc(Cl)cc12",
    "ENDPOINT": "TGI",
    "RESULT": "> 100 µM"
  },
  {
    "COMPOUND": "C=CCn1c(N)c(C#N)c(C#N)c1-c1ccccc1",
    "ENDPOINT": "TGI",
    "RESULT": "> 100 µM"
  },
  {
    "COMPOUND": "OC(CC1SCCCS1)c1ccccc1 (stereo not drawn)",
    "ENDPOINT": "TGI",
    "RESULT": "> 100 µM"
  },
  {
    "COMPOUND": "CC1CC(OP(=O)(OCc2ccccc2)OCc2ccccc2)[C@@H](OCc2ccccc2)C(OCc2ccccc2)C1OCc1ccccc1 (stereo partly drawn)",
    "ENDPOINT": "TGI",
    "RESULT": "> 100 µM"
  },
  {
    "COMPOUND": "CCCC(=O)OCC1OC(n2ccc(N)nc2=O)C(OC(=O)CCC)C1OC(=O)CCC (stereo not drawn)",
    "ENDPOINT": "TGI",
    "RESULT": "> 100 µM"
  }
]

Briefly, TGI measured for `CN1CCN(C2CCN(C(=O)Nc3cc(Oc4ccc(NC(=O)C5(C(=O)Nc6ccc(F)cc6)CC5)c(F)c4)ccn3)CC2)CC1` : > 2.66 µM

Briefly, TGI measured for `C=CCCON(C(=O)OC(C)(C)C)C(C)(C)C` : > 100 µM
